These data points were gathered from patent US20240343704A1.

SYSTEM NAME: Lck (h) (Homo sapiens, UniProt P06239)
Sequence (P06239 whole entry): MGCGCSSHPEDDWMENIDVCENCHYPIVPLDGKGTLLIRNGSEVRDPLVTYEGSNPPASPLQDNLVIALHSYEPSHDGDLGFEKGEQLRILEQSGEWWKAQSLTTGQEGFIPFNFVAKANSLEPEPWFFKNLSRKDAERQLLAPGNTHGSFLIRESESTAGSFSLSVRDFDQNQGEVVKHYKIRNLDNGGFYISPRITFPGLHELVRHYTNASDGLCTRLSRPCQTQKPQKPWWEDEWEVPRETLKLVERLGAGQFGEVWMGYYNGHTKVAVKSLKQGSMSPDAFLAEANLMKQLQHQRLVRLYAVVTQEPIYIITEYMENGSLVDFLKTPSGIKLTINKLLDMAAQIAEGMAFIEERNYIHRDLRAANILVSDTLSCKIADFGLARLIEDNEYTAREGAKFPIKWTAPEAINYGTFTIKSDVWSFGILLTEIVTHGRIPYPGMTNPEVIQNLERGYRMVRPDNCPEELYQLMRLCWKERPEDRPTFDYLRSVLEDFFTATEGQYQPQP
PROCEDURE DETAILS: Lck Human  Kinase Enzymatic Radiometric Assay
Assay type: biochemical
TEST CONTEXT: read-out: Lck IC50 nM Range*
ATTRIBUTE MEASURED: IC50

• CC(C)N1CCN(c2ccc(-c3cc(-c4cc5c(cc4Cl)C(=O)NCC5)c(N)nc3F)cc2)CC1 = > 1000 nM
• COCC(=O)N1C[C@H]2C[C@@]2(c2ccc(-c3cc(-c4ccc5c(c4)CCNC5=O)c(N)nc3F)cc2)C1 = > 1000 nM
• CC(=O)N1CC(Oc2ccc(-c3cc(-c4ccc5c(c4)CCNC5=O)c(N)nc3F)cc2)C1 = > 1000 nM
• Nc1nc(F)c(-c2ccc(C3CCN(CC(F)F)CC3)cc2)cc1-c1ccc2c(c1)CCNC2=O = > 1000 nM
• CN1CCN(c2ccc(-c3cc(-c4ccc5c(c4)CCNC5=O)c(N)nc3F)cc2C(F)(F)F)CC1 = > 1000 nM
• Nc1nc(F)c(-c2ccc(OC3CCN(CC(F)(F)F)CC3)cc2)cc1-c1ccc2c(c1)CCNC2=O = > 1000 nM
• Nc1nc(F)c(-c2ccc(OC3CNC3)cc2)cc1-c1cc2c(cc1F)C(=O)NCC2 [I-339, 2,2,2-trifluoroacetate] = > 1000 nM
• Nc1nc(F)c(-c2ccc(S(=O)(=O)C3CNC3)cc2)cc1-c1ccc2c(c1)CCNC2=O = > 1000 nM
• CN1CCOc2cc(-c3cc(-c4ccc5c(c4)CCNC5=O)c(N)nc3F)ccc21 = > 1000 nM
• CC(=O)N1CCC(Oc2ccc(-c3cc(-c4ccc5c(c4)CCNC5=O)c(N)nc3F)cc2F)CC1 = 0.1 to 10 nM
• CN1CCc2cc(-c3cc(-c4ccc5c(c4)CCNC5=O)c(N)nc3F)ccc2C1 = > 1000 nM
• CC(C)N1CCN(c2ccc(-c3cc(-c4cc(N)c5c(c4)CCNC5=O)c(N)nc3F)cc2)CC1 = 101 to 1000 nM
• Nc1nc(F)c(-c2ccc(N3CCN(CCC4CC4)CC3)cc2)cc1-c1ccc2c(=O)[nH]ccc2c1 = > 1000 nM
• CC(C)N1CCN(c2ccc(-c3cc(-c4cc5c(c(N(C)C)c4)C(=O)NCC5)c(N)nc3F)cc2)CC1 = > 1000 nM
• Nc1nc(F)c(-c2ccc(C3COCCN3CC(F)F)cc2)cc1-c1ccc2c(c1)CCNC2=O (stereo not shown) = > 1000 nM
• CCN(C)C1CCN(c2ccc(-c3cc(-c4ccc5c(c4)CCNC5=O)c(N)nc3F)cc2)C1 (stereo not shown) = 101 to 1000 nM

* * *

Each entry below carries its recorded IC50.
SYSTEM NAME: Recombinant (1-346) HPK1 (h) (Homo sapiens, UniProt Q92918)
Construct: Recombinant (1-346) HPK1 (h) is incubated with 8 mM MOPS pH 7.0
Sequence (Q92918 1-346): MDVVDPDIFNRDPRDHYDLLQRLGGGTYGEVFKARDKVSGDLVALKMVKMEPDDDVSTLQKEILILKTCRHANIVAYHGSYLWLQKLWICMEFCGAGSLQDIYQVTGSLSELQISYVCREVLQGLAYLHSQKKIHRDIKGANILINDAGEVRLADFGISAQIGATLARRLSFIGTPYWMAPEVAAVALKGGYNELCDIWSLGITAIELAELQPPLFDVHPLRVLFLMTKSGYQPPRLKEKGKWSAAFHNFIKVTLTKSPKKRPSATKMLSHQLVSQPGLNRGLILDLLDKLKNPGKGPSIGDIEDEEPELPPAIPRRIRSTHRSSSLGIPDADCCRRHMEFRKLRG
PROCEDURE DETAILS: HPK1 Human STE Kinase Enzymatic Radiometric Assay
Format: biochemical
TEST CONTEXT: read-out: HPK1 IC50 nM Range*
ATTRIBUTE MEASURED: IC50

- CC(=O)N1CCC2(CCc3cc(-c4cc(-c5ccc6c(c5)CCNC6=O)c(N)nc4F)ccc3O2)CC1 [I-193]: 0.1 to 10 nM
- CC(=O)N1CCC(Oc2ccc(-c3cc(-c4ccc5c(c4)CCNC5=O)c(N)nc3F)c3c2OCO3)CC1 [I-306]: 0.1 to 10 nM
- CC(C)N1CCC(Oc2ccc(-c3cc(-c4ccc5c(c4)CCNC5=O)c(N)nc3F)c3c2OCO3)CC1 [I-275]: 0.1 to 10 nM
- C[C@@H]1CN(c2ccc(-c3cc(-c4ccc5c(c4)CCNC5=O)c(N)nc3F)cc2CN(C)C)CCO1 [I-575]: 11 to 100 nM
- CC(C)N1CCC2(CC1)OCc1cc(-c3cc(-c4ccc5c(c4)CCNC5=O)c(N)nc3F)ccc1O2 [I-218]: 0.1 to 10 nM
- Nc1nc(F)c(-c2ccc(N3CCN(CC4CC4)CC3)cc2)cc1-c1cc(F)c2c(c1)CCNC2=O [I-307]: 0.1 to 10 nM
- C[C@@H]1CN(c2ccc(-c3cc(-c4cc(F)c5c(c4)CCNC5=O)c(N)nc3F)cc2CN(C)C)C[C@H](C)O1 [I-596]: 11 to 100 nM
- CN(C)Cc1nc(-c2cc(-c3cc4c(cc3F)C(=O)NCC4)c(N)nc2F)ccc1C1CCOCC1 [I-601]: 0.1 to 10 nM
- COc1cc(-c2cc(-c3ccc4c(c3)CCNC4=O)c(N)nc2F)ccc1OC1CCN(C(C)C)CC1 [I-273]: 0.1 to 10 nM
- CC(C)N1CCCC(c2ccc(-c3cc(-c4ccc5c(c4)CCNC5=O)c(N)nc3F)cc2)C1 (stereo not shown) [I-80]: 0.1 to 10 nM
- CC(C)N1CCN(c2ccc(-c3cc(-c4ccc5c(c4)CCNC5=O)c(N)nc3F)cc2)CC1C (stereo not shown) [I-278]: 0.1 to 10 nM
- COc1ccc(-c2cc(-c3ccc4c(c3)CCNC4=O)c(N)nc2F)cc1C#N [I-632]: 11 to 100 nM
- CN(C)Cc1cc(-c2cc(-c3cc4c(cc3F)C(=O)NCC4)c(N)nc2F)ccc1OCC(F)F [I-556]: 11 to 100 nM
- Cc1nc2cc(-c3cc(-c4ccc(N5CCN(C6CCC6)CC5)cc4)c(F)nc3N)ccc2c(=O)[nH]1 [I-472]: 0.1 to 10 nM
- CN1CCN(S(=O)(=O)c2ccc(-c3cc(-c4ccc5c(c4)CCNC5=O)c(N)nc3F)cc2)CC1 [I-207]: 0.1 to 10 nM
- Nc1nc(F)c(-c2ccc(C3CCCCN3CC(F)(F)F)cc2)cc1-c1ccc2c(c1)CCNC2=O (stereo not shown) [I-93]: 11 to 100 nM

* * *

As shown below, each of these molecules has a reported IC50 value.
SYSTEM NAME: Recombinant (1-346) HPK1 (h) (Homo sapiens, UniProt Q92918)
Construct: Recombinant (1-346) HPK1 (h) is incubated with 8 mM MOPS pH 7.0
PROCEDURE DETAILS: HPK1 Human STE Kinase Enzymatic Radiometric Assay
Type: biochemical
TEST CONTEXT: read-out: HPK1 IC50 nM Range*
ATTRIBUTE MEASURED: IC50

* CC(C)N1CCN(c2ccc(-c3cc(-c4ccc5c(=O)[nH]c(C(F)(F)F)nc5c4)c(N)nc3F)cc2)CC1 | 101 to 1000 nM
* COCCN(C)Cc1cc(-c2cc(-c3ccc4c(c3)CCNC4=O)c(N)nc2F)ccc1N1CCOCC1 | 0.1 to 10 nM
* CC(C)N1CCN(c2ccc(-c3cc(-c4cc5c(Cl)c[nH]c(=O)c5cn4)c(N)nc3F)cc2)CC1 | 0.1 to 10 nM
* CN1CCN(Cc2ccc(-c3cc(-c4ccc5c(c4)CCNC5=O)c(N)nc3F)cc2)CC1 | 11 to 100 nM
* COc1cc(-c2cc(-c3ccc(N4CCN(C(C)C)CC4)cc3)c(F)nc2N)cc2c1C(=O)NCC2 | 101 to 1000 nM
* Cc1cc(-c2cc(-c3ccc4c(c3)CCNC4=O)c(N)nc2F)cc2c1CCNC2 | 0.1 to 10 nM
* COCCN(C)Cc1nc(-c2cc(-c3cc4c(cc3F)C(=O)NCC4)c(N)nc2F)ccc1N1CCOCC1 | 0.1 to 10 nM
* Nc1nc(F)c(-c2cnn(C3CCOCC3)c2)cc1-c1ccc2c(c1)CCNC2=O | 0.1 to 10 nM
* Cc1cc2cc(-c3cc(-c4ccc(N5CCN(CC6CC6)CC5)cc4)c(F)nc3N)cc(F)c2c(=O)[nH]1 | 0.1 to 10 nM
* CC(=O)N1CC(F)(c2ccc(-c3cc(-c4ccc5c(c4)CCNC5=O)c(N)nc3F)cc2)C1 | 0.1 to 10 nM
* CCN1CCCC(c2ccc(-c3cc(-c4ccc5c(c4)CCNC5=O)c(N)nc3F)cc2)C1 (stereo not shown) | 0.1 to 10 nM
* CC(C)N1CCC(Oc2cc(F)c(-c3cc(-c4ccc5c(c4)CCNC5=O)c(N)nc3F)cc2F)CC1 | 11 to 100 nM
* COC1CCN(Cc2cc(-c3cc(-c4ccc5c(c4)CCNC5=O)c(N)nc3F)ccc2N2CCSCC2)CC1 | 11 to 100 nM
* Nc1nc(F)c(-c2ccc([C@@]34C[C@@H]3CN(C3COC3)C4)cc2)cc1-c1ccc2c(c1)CCNC2=O | 0.1 to 10 nM
* Nc1nc(F)c(-c2ccc(N3CCN(CC4CC4)CC3)cc2)cc1-c1ccc2c(c1)CCNC2=O | 0.1 to 10 nM
* Nc1nc(F)c(-c2ccc(OC3CCNCC3)c(C(F)(F)F)c2)cc1-c1ccc2c(c1)CCNC2=O | 11 to 100 nM
